B1: EEHEE_rd3_1049 (parent)
chain: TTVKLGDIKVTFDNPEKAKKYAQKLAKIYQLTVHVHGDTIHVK

Variants of: B1
Test: folding stability dG (cDNA display proteolysis); higher = more stable
Conditions: PBS, room temperature
Parameter threshold = 2 kcal/mol. Response is criterion met when folding stability dG meets or exceeds it, else criterion not met.

# polymer-sequence, label-class
rows = [
    ("TTVKLGDIKVTFDNPEKAKKYAQKLAKIAQLTVHVHGDTIHVK [Y29A]", "criterion not met"),
    ("TTVKLGDIKVTFDWPEKAKKYAQKLAKIYQLTVHVHGDTIHVK [N14W]", "criterion not met"),
    ("TTVKLGDIKVTFDNPEKAKKLAQKLAKIYQLTVHVHGDTIHVK [Y21L]", "criterion not met"),
    ("TTVKLGDIKVTFDNPEKAKKYAQKLAKIYQLTVHVHGDTIHSK [V42S]", "criterion not met"),
    ("TTVKLGQIKVTFDNPEKAKKYAQKLAKIYQLTVHVHGDTIHVK [D7Q]", "criterion met"),
    ("TTVKLGDIKVTFDNPETAKKYAQKLAKIYQLTVHVHGDTIHVK [K17T]", "criterion met"),
    ("TTVKLGDRKVTFDNPEKAKKYAQKLAKIYQLTVHVHGDTIHVK [I8R]", "criterion not met"),
    ("TTVKLGDIKSTFDNPEKAKKYAQKLAKIYQLTVHVHGDTIHVK [V10S]", "criterion not met"),
    ("TTVKLGDIKVTFDNPEKAKKYAQKLAKIYQLTVHVHGDTHHVK [I40H]", "criterion not met"),
    ("TTVKLGDIKFTFDNPEKAKKYAQKLAKIYQLTVHVHGDTIHVK [V10F]", "criterion met"),
    ("TTVVLGDIKVTFDNPEKAKKYAQKLAKIYQLTVHVHGDTIHVK [K4V]", "criterion met"),
    ("TTVKLGDILVTFDNPEKAKKYAQKLAKIYQLTVHVHGDTIHVK [K9L]", "criterion met"),
    ("TTVKLGDIKVTFTNPEKAKKYAQKLAKIYQLTVHVHGDTIHVK [D13T]", "criterion met"),
    ("TTVKLGDIKVTFDNPEKAKKYAQKLAKIYQLTVHVHGDDIHVK [T39D]", "criterion not met"),
    ("TTVKLGDIKVTFDVPEKAKKYAQKLAKIYQLTVHVHGDTIHVK [N14V]", "criterion not met"),
    ("TTVKLGDIKVTFDNPEKAKKYVQKLAKIYQLTVHVHGDTIHVK [A22V]", "criterion not met"),
    ("TTVKLGDIKVTFDNPEKAKKYDQKLAKIYQLTVHVHGDTIHVK [A22D]", "criterion not met"),
    ("TTVKLGDIKVAFDNPEKAKKYAQKLAKIYQLTVHVHGDTIHVK [T11A]", "criterion not met"),
    ("TTVKLGDITVTFDNPEKAKKYAQKLAKIYQLTVHVHGDTIHVK [K9T]", "criterion met"),
    ("TTVKLGDIKVTFDNPEKAKKYAQKLAKIYKLTVHVHGDTIHVK [Q30K]", "criterion met"),
    ("TTVKLGDIKVTFDNPEKAKKYAQKLAKIYQLTVHVHGDTIDVK [H41D]", "criterion not met"),
    ("TTVKLGDIKVTFDNPEKAHKYAQKLAKIYQLTVHVHGDTIHVK [K19H]", "criterion met"),
]

Origin of the recorded values: the MegaScale stability set (Tsuboyama et al. 2023)
